- method: chemical genetic growth profiling, strain panel (AID 1159580);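 also: tested at 20 µM; growth read once vehicle control cultures reached saturation at 30 °C; 1 = growth at the plate median or of vehicle wells; lower values mean less growth of the strain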
- condition summary: S. cerevisiae deletion strains, growth OD, locus YDL028C, strain MPS1, stronger effect = lower value
Among all 5,500 compounds or so, about 2,000 (36%) were called active. About 18% were inconclusive and are not listed. This is one part of the list.
attribute measured: normalized growth

What value of normalized growth has been reported for the following molecule? O=C1/C(=C/c2ccccn2)CCc2ccccc21
0.94 (inactive)

Do the same for OC(COc1ccc(F)cc1)(c1ccccc1)c1ccccc1 please
0.977 (inactive)

Also Cc1cc(Oc2ccc(C(F)(F)F)cc2NS(C)(=O)=O)cc(C)c1Cl , if possible.
0.998 (inactive)

Further, for O=C1Nc2ccccc2/C1=C\c1cccc([N+](=O)[O-])c1 ?
0.971 (inactive)

Query O=C1Nc2ccccc2/C1=C/c1ccc(C(F)(F)F)cc1Cl next
0.977 (inactive)

###

- method: chemical genetic growth profiling, strain panel (AID 1159580);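 also: tested at 20 µM; growth read once vehicle control cultures reached saturation at 30 °C; 1 = growth at the plate median or of vehicle wells; lower values mean less growth of the strain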
- condition summary: S. cerevisiae deletion strains, growth OD, locus YML070W, strain DAK1, stronger effect = lower value
Out of some 5,500 compounds screened, about 2,000 (36%) were called active. Inconclusive results (about 18%) are left out. The list shows a part of the results.
API: label(entry) gives Y if the entry's normalized growth is strictly smaller than 0.9; on equality or larger values it gives N.

Dear reviewer, please state whether Oc1c(Br)cc(Br)cc1C=Nc1ccccn1 has normalized growth strictly beneath 0.9.
Y

Now consider Cc1nnc2n1N=C(c1ccc(CC(C)C)cc1)C(C)S2 (stereo not given) and answer again.
N

Next record, please: OC(COc1ccc(F)cc1)(c1ccccc1)c1ccccc1
N

Now this one: CCNC(=S)N/N=C\c1cc(Cl)cc(Cl)c1O
Y

And then O/N=C(/c1ccc(Cl)cc1)c1cc2ccccc2o1 , what is it?
Y

Now this one: CC(NC(=S)N/N=C\c1ccccc1O)c1ccccc1 (stereo not given)
N

Now try O=S(=O)(CS(=O)(=O)Oc1ccc(Cl)c(Cl)c1)Oc1ccc(Cl)c(Cl)c1 .
N

Now consider Cc1cc(Oc2ccc(C(F)(F)F)cc2NS(C)(=O)=O)cc(C)c1Cl .
N

Next: COc1ccccc1NC(=S)N/N=C\c1ccccc1O
N

Another: CCOC(=O)N/N=C\c1cc(Cl)cc(Cl)c1O
Y

Also, O=[N+]([O-])c1cc(Cl)cc([N+](=O)[O-])c1Nc1ccccc1 please.
N

Try the molecule O=C1Nc2ccccc2/C1=C/c1ccc(C(F)(F)F)cc1Cl
N

Also Cc1cc(Cl)ccc1NNC(=O)c1sccc1Cl ?
Y

Next up: O=C1C(Cl)=C(Oc2cc(Cl)c(Cl)cc2Cl)C(=O)c2ccccc21
Y

Try this molecule next: COCCCNC(=S)N/N=C\c1cc(Cl)cc(Cl)c1O
N

And then c1ccc(-c2nnc(-c3ccccn3)nc2-c2ccccc2)cc1 , what is it?
Y

Also, CN(C)C=Nc1nnc(Sc2nc3c(Cl)cc(Cl)cc3s2)s1 please.
N

And then O=C1Nc2ccccc2/C1=C\c1cccc([N+](=O)[O-])c1 , what is it?
N

Cc1c(C)c(C)c(C(O)c2ccccc2)c(C)c1C (stereo not given) ?
Y

###

So I've got a bunch of compounds here, and I need their normalized growth values.
- method: chemical genetic growth profiling, strain panel (AID 1159580);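 also: tested at 20 µM; growth read once vehicle control cultures reached saturation at 30 °C; 1 = growth at the plate median or of vehicle wells; lower values mean less growth of the strain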
- condition summary: S. cerevisiae deletion strains, growth OD, locus YGL167C, strain pmr1, stronger effect = lower value
About 2,000 (36%) of roughly 5,500 compounds were called active. Another 18% or so got no clear call; they are omitted. This is one part of the list.
Respond using a number only.

Which normalized growth is listed for O=c1cc(-c2ccc(O)cc2)oc2cc(O[C@@H]3O[C@H](CO)[C@@H](O)[C@H](O)[C@H]3O)cc(O)c12 ?
1

Subsequent entry: CO[C@@]1(NC(=O)C(C(=O)O)c2ccc(O)cc2)C(=O)N2C(C(=O)O)=C(CSc3nnnn3C)CO[C@@H]21 (some centres not stated)
0.987

Next up: COc1ccc(-c2oc3cc(O[C@H]4O[C@H](CO)[C@@H](O)[C@H](O)[C@H]4O)c(OC)c(O)c3c(=O)c2OC)cc1O
0.994

Moving on to CC1O[C@@H](Oc2c(-c3ccc(O)c(O)c3)oc3cc(O)cc(O)c3c2=O)[C@H](O)[C@H](O)[C@H]1O (some centres not stated)
0.99

And C[C@@H]1O[C@@H](OC[C@H]2OC(Oc3c(-c4ccc(O)c(O)c4)oc4cc(O)cc(O)c4c3=O)[C@H](O)[C@@H](O)[C@@H]2O)[C@H](O)[C@H](O)[C@H]1O (some centres not stated) ?
0.975

Next compound up: CC(=O)OCC1=C(C(=O)O)N2C(=O)[C@@H](NC(=O)Cc3cccs3)[C@H]2SC1
1.02

Also O=c1c(O)c(-c2ccc(O)cc2O)oc2cc(O)cc(O)c12 ?
0.98
